system.tested: Replicase polyprotein 1ab (Human coronavirus 229E, UniProt P0C6X1)
Sequence (P0C6X1 2966-3267 limits assumed): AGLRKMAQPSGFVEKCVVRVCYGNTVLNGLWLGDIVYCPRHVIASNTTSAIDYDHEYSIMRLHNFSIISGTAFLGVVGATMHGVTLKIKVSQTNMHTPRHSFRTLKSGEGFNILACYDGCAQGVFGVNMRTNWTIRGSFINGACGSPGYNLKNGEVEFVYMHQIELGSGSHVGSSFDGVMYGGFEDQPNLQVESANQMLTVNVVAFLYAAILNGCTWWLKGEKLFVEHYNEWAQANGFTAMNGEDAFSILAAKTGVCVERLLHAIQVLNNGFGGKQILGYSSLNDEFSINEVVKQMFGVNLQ
property.measured: IC50 (µM)
Output spec: scalar in µM, unitless text.

structure	system.tested	property.measured	result
CC(C)(C)[C@H](NC(=O)C(F)(F)F)C(=O)N1C[C@H]2[C@@H]([C@H]1C(=O)N[C@@H](C[C@@H]1CCNC1=O)C(=O)C(=O)NC1CC1)C2(C)C	Replicase polyprotein 1ab (Human coronavirus 229E, UniProt P0C6X1)	IC50	0.07

We next turn to a different compound, shown below.
query: Quick one: IC50 of `CC(C)(C)[C@H](NC(=O)C(F)(F)F)C(=O)N1C[C@H]2[C@@H]([C@H]1C(=O)N[C@@H](C[C@@H]1CCNC1=O)C(=O)c1nc3ccccc3s1)C2(C)C` ?
result: 0.239

---

So I've got IC50 readings for Replicase polyprotein 1ab (Human coronavirus 229E), take a look.
Output spec: scalar in nM, unitless text.

These solved cases illustrate the format of a correct answer.
structure	result
CC(C)(C)[C@H](NC(=O)C(F)(F)F)C(=O)N1C[C@H]2[C@@H]([C@H]1C(=O)N[C@@H](C[C@@H]1CCNC1=O)C(=O)COCc1ccccc1)C2(C)C	467
CC(C)(C)[C@H](NC(=O)C(F)(F)F)C(=O)N1C[C@H]2[C@@H]([C@H]1C(=O)N[C@@H](C[C@@H]1CCNC1=O)C(=O)CO)C2(C)C	13

query: Quick one: IC50 of `CC(C)(C)[C@H](NC(=O)C(F)(F)F)C(=O)N1C[C@H]2[C@@H]([C@H]1C(=O)N[C@H](C=O)C[C@@H]1CCNC1=O)C2(C)C` ?
result: 16

---

Consider the following compounds and their measured pIC50 readings.
system.tested: Replicase polyprotein 1ab (Severe acute respiratory syndrome coronavirus 2, UniProt P0DTD1)
# pIC50 = -log10(concentration in molar units)

structure	result
CC(C)(C)[C@H](NC(=O)C(F)(F)F)C(=O)N1C[C@H]2[C@@H]([C@H]1C(=O)N[C@@H](C[C@@H]1CCNC1=O)C(=O)C(=O)NC1CC1)C2(C)C	7.72
CC(C)(C)[C@H](NC(=O)C(F)(F)F)C(=O)N1C[C@H]2[C@@H]([C@H]1C(=O)N[C@@H](C[C@@H]1CCNC1=O)C(=O)COCc1ccccc1)C2(C)C	7.57

query: Quick one: pIC50 of `CC(C)(C)[C@H](NC(=O)C(F)(F)F)C(=O)N1C[C@H]2[C@@H]([C@H]1C(=O)N[C@H](C=O)C[C@@H]1CCNC1=O)C2(C)C` ?
result: 8.00

---

system.tested: Replicase polyprotein 1ab (Human coronavirus 229E, UniProt P0C6X1)
Consider the following compounds and their measured IC50 readings.

These solved cases illustrate the format of a correct answer.
compound	result
COC(=O)[C@H](C[C@@H]1CCNC1=O)NC(=O)[C@@H]1[C@@H]2[C@H](CN1C(=O)[C@@H](NC(=O)C(F)(F)F)C(C)(C)C)C2(C)C	> 100 µM
CC(C)(C)[C@H](NC(=O)C(F)(F)F)C(=O)N1C[C@H]2[C@@H]([C@H]1C(=O)N[C@@H](C[C@@H]1CCNC1=O)C(N)=O)C2(C)C	> 100 µM

We next turn to a different compound, shown below.
query: Quick one: IC50 of CC(C)(C)[C@H](NC(=O)C(F)(F)F)C(=O)N1C[C@H]2[C@@H]([C@H]1C(=O)NCCC1CCNC1=O)C2(C)C (stereo partly drawn) ?
result: > 100 µM
